System: MDA-MB-231 breast
method: NCI-60 one-dose screen, 48 h
testParameters: 10 µM unless noted
This is part of a sample that, as a whole, favours compounds with a hit. Of some 83,000 tested, about 20% had one in any assay. Calls of active or inactive are those of the source. How the source made its calls: active means growth percent below 10; inactive means the rest.
Possible outcomes: y (active), n (inactive)

>  <compound>
COC(=O)c1ccc(NC(=O)CSc2nc(-c3ccc(F)cc3)nc3ccccc23)cc1

>  <assignedLabel>
n

$$$$
>  <compound>
COc1ccc2c(c1)Oc1nc(N)c(C#N)c(N)c1C2Sc1ccc(O)cc1 (stereo unspecified)

>  <assignedLabel>
n

$$$$
>  <compound>
COC(=O)c1oc2c(C(=O)/C=C/c3ccc(OC)cc3)c(OCCCN3CCCCC3)ccc2c1C

>  <assignedLabel>
n

$$$$
>  <compound>
COc1ccc2c(c1)/C(=C1\S/C(=N/c3nnc(C)s3)NC1=O)C(=O)N2Cc1ccc(Cl)cc1

>  <assignedLabel>
n

$$$$
>  <compound>
C#CC[C@@H]1C[C@]2(C)[C@H]3CC[C@@H]4[C@H]5[C@H](C(=C)C)CC[C@]5(C(=O)O)CC[C@@]4(C)[C@]3(C)CC[C@H]2C(C)(C)[C@H]1O

>  <assignedLabel>
n

$$$$
>  <compound>
NC[C@@H]1CCN(c2cc3c(cc2F)c(=O)n(N)c(=O)n3Cc2ccc(-c3ccccc3)cc2)C1

>  <assignedLabel>
n

$$$$
>  <compound>
O=C(Nc1cc(Nc2ncccc2-c2ncnc3nc[nH]c23)ccc1F)c1cc(C(F)(F)F)cc(C(F)(F)F)c1

>  <assignedLabel>
y

$$$$
>  <compound>
C=C(C)[C@@H]1CC[C@]2(C(=O)OCCOCCOCC[P+](c3ccccc3)(c3ccccc3)c3ccccc3)CC[C@]3(C)[C@H](CC[C@@H]4[C@@]5(C)CC[C@H](OC(=O)C(Cl)Cl)C(C)(C)[C@@H]5CC[C@]43C)[C@@H]12

>  <assignedLabel>
y

$$$$
>  <compound>
O=C1NN(c2ccccc2)C(c2ccc3c(c2)OCO3)N2CCC[C@@H]12 (stereo partly specified)

>  <assignedLabel>
n

$$$$
>  <compound>
C#C[C@@]1(O)[C@@H](CO)O[C@@H](n2cc(Cl)c3c(N)ccnc32)[C@@H]1O

>  <assignedLabel>
n

$$$$
>  <compound>
COc1cc(NCC(=O)Nc2cc(Nc3cccc(C(F)(F)F)c3)ncn2)c(Cl)c(OC)c1Cl

>  <assignedLabel>
n

$$$$

----------
Tested on: K-562 leukemia
method: NCI-60 one-dose screen, 48 h (100 = growth as untreated, 0 = no growth, -100 = all killed)
testParameters: 10 µM unless noted
Compounds without any hit were thinned out: in the full panel of roughly 83,000, 20% have a hit.
Would you please tag the item Fulfilled when its growth is 10% or above, and Not fulfilled when it is below?

>  <molecule>
COC(=O)/C=C/c1cc(OC)c2c(c1)[C@@H](C(=O)OC)[C@H](c1ccc(OC)c(OC)c1)O2

>  <systemUnderTest>
K-562 leukemia

>  <assignedLabel>
Fulfilled

$$$$
>  <molecule>
CC(=O)Nc1c(C(=O)Nc2ccccc2)sc2nc3c(cc12)C(OC(C)=O)CCC3 (stereo not given)

>  <systemUnderTest>
K-562 leukemia

>  <assignedLabel>
Fulfilled

$$$$
>  <molecule>
CCSc1ccc(C2C(Br)C(=O)N2c2cc(OC)c(OC)c(OC)c2)cc1 (stereo not given)

>  <systemUnderTest>
K-562 leukemia

>  <assignedLabel>
Not fulfilled

$$$$
>  <molecule>
CC(=O)[C@@H]1CC[C@]2(C(=O)O)CC[C@]3(C)[C@H](CC[C@@H]4[C@@]5(C)Cc6c([nH]c7ccccc67)C(C)(C)[C@@H]5CC[C@]43C)[C@@H]12

>  <systemUnderTest>
K-562 leukemia

>  <assignedLabel>
Fulfilled

$$$$
>  <molecule>
C#Cc1cccc(Nc2ncnc3ccc(NC(=O)c4ccccc4)cc23)c1

>  <systemUnderTest>
K-562 leukemia

>  <assignedLabel>
Fulfilled

$$$$
>  <molecule>
O=C1CS/C(=N/c2nnc(-c3ccc(O)cc3)s2)N1

>  <systemUnderTest>
K-562 leukemia

>  <assignedLabel>
Fulfilled

$$$$
>  <molecule>
COc1cc(C(C)c2ccc3c(ccn3C)c2)cc(OC)c1OC (stereo not given)

>  <systemUnderTest>
K-562 leukemia

>  <assignedLabel>
Not fulfilled

$$$$
>  <molecule>
C/C(=C\c1cnc(C)s1)[C@@H]1C[C@@H]2O[C@@H]2CCC[C@H](C)[C@H](O)[C@@H](C)C(=O)C(C)(C)[C@@H](O)CC(=O)O1

>  <systemUnderTest>
K-562 leukemia

>  <assignedLabel>
Fulfilled

$$$$
>  <molecule>
c1ccc2c3c([nH]c2c1)C(c1ccc(C2NCCc4c2[nH]c2ccccc42)cc1)NCC3 (stereo not given)

>  <systemUnderTest>
K-562 leukemia

>  <assignedLabel>
Not fulfilled

$$$$
>  <molecule>
CC(C)(C)CC(C)(C)Cc1ccc(OCCOCC[N+](C)(C)Cc2ccccc2)cc1

>  <systemUnderTest>
K-562 leukemia

>  <assignedLabel>
Not fulfilled

$$$$

----------
Tested on: SK-OV-3 ovarian
method: NCI-60 one-dose screen, 48 h (100 = growth as untreated, 0 = no growth, -100 = all killed)
testParameters: 10 µM unless noted
Procedure: Growth inhibition of the SK-OV-3 human tumor cell line is measured as a screen for anti-cancer activity. Cells are grown in 96 well plates and exposed to the test compound for 48 hours. Compounds are tested at a single concentration, which is 10^-5 M for most compounds. The reported endpoint is percent growth (GI% or GIPRCNT), where numbers from 0 - 100% represent growth inhibition, and numbers from -100% - 0 represent cell death. For example, a value of 40 represents 60% growth inhibition. […]
The panel holds about 83,000 compounds, 20% with a hit somewhere; the sample as a whole holds those more often.
In this section we review reported growth values for a set of molecules.

>  <molecule>
COc1ccc2oc(=O)cc(-c3nc4ccc(N)cc4[nH]3)c2c1

>  <unitSymbol>
%

>  <growth>
77.5

$$$$
>  <molecule>
CN(C)[C@@H]1C(=O)C(C(N)=O)=C(O)[C@@]2(O)C(=O)C3=C(O)c4c(O)cc(CN5CCc6ccccc6C5)c(Cl)c4C[C@H]3C[C@@H]12

>  <unitSymbol>
%

>  <growth>
-93.3

$$$$
>  <molecule>
CNC(=O)c1cc(Oc2ccc3c(c2)sc2nc(-c4ccc(NC(C)=O)cc4)cn23)ccn1

>  <unitSymbol>
%

>  <growth>
34

$$$$
>  <molecule>
CC[C@]12C=CCN3CC[C@@]4(c5ccc(OC)cc5N(C)[C@H]4[C@@](O)(C(=O)OC)[C@@H]1OC(=O)CCC(=O)O[C@H]1CC[C@H]4[C@@H]5CC[C@H]6CC(=O)CC[C@]6(C)[C@H]5CC[C@]14C)[C@@H]32

>  <unitSymbol>
%

>  <growth>
35.3

$$$$
>  <molecule>
OCCNc1nc(NCCO)nc(Nc2ccc(C3=NN(c4ccc(Cl)cc4)C(c4ccc(Cl)cc4)C3)cc2)n1 (configuration not stated)

>  <unitSymbol>
%

>  <growth>
84.1

$$$$
>  <molecule>
O=C(O)c1ccc(-n2cc(/C=N/Nc3ccc(Cl)cc3Cl)c(-c3ccccc3)n2)cc1

>  <unitSymbol>
%

>  <growth>
89.4

$$$$
>  <molecule>
CCOC(=O)c1c(C)nc2c(c1N)CC(=O)N2CCc1ccccc1

>  <unitSymbol>
%

>  <growth>
45.6

$$$$

----------
Test system: NCI-H23 lung
method: NCI-60 one-dose screen, 48 h
testParameters: 10 µM unless noted
The panel holds about 83,000 compounds, 20% with a hit somewhere; the sample as a whole holds those more often. Activity calls are given as the source filed them. The calls were made as follows: active = growth percent below 10; inactive = the rest.
Classes used: yes (1) (active), no (0) (inactive)

>  <molecule>
Nn1c(SCC(=O)Nc2ccc(Cl)cc2)nnc1-c1cc(F)c(Cl)cc1Cl

>  <assignedLabel>
no (0)

$$$$
>  <molecule>
CCN1CCC[C@H]1c1cc(O)c2c(c1OC)C[C@H]1C[C@H]3[C@H](N)C(=O)C(C(N)=O)=C(O)[C@@]3(O)C(=O)C1=C2O

>  <assignedLabel>
yes (1)

$$$$
>  <molecule>
COc1cc2nc3c(=O)n(CCN(C)C)cnn3c(=O)c2cc1OC

>  <assignedLabel>
no (0)

$$$$
>  <molecule>
Cc1c(Cl)cccc1NC(=O)c1sc2nc3c(cc2c1N)COCC3

>  <assignedLabel>
no (0)

$$$$
>  <molecule>
N#Cc1c(-c2ccc(F)cc2)nc(N=Nc2c(O)[nH]c3ccccc23)nc1N1CCOCC1

>  <assignedLabel>
no (0)

$$$$
>  <molecule>
CCCCC(=O)Nc1c(C(=O)Nc2ccccc2)sc2nc3c(cc12)C(OC(=O)CCCC)CCC3 (configuration not stated)

>  <assignedLabel>
no (0)

$$$$
>  <molecule>
Cc1cc(Nc2nc(SCc3ccc(C(=O)Nc4ccc(F)cc4N)cc3)nn3cccc23)n[nH]1

>  <assignedLabel>
no (0)

$$$$
>  <molecule>
CC1(C)CC[C@]2(c3nnc(-c4ccncc4)o3)CC[C@]3(C)C(=CC[C@@H]4[C@@]5(C)CCC(=O)C(C)(C)[C@@H]5CC[C@]43C)[C@@H]2C1

>  <assignedLabel>
no (0)

$$$$
>  <molecule>
COc1ccc(-c2cc(-c3nnc(SCC(=O)Nc4ccc(/C(C)=N\O)cc4)o3)c3ccccc3n2)cc1

>  <assignedLabel>
no (0)

$$$$
>  <molecule>
CC(=O)c1cc2c(N)c(C(=O)Nc3ccccn3)sc2nc1C

>  <assignedLabel>
no (0)

$$$$
>  <molecule>
C=C(C)[C@@H]1CC[C@]2(C(=O)O)CC[C@]3(C)[C@H](CC[C@@H]4[C@@]5(C)C[C@@H](CC#Cc6ccc(Cl)cc6)C(=O)C(C)(C)[C@@H]5CC[C@]43C)[C@@H]12

>  <assignedLabel>
no (0)

$$$$
>  <molecule>
O=C1C(=O)c2c(nc3ccc(Br)cn23)-c2ccccc21

>  <assignedLabel>
yes (1)

$$$$
